Target: T1, human corticotrophin releasing hormone receptor type 2 (CRHR2) (human, UniProt Q13324 1-411)
T1 sequence (looked up): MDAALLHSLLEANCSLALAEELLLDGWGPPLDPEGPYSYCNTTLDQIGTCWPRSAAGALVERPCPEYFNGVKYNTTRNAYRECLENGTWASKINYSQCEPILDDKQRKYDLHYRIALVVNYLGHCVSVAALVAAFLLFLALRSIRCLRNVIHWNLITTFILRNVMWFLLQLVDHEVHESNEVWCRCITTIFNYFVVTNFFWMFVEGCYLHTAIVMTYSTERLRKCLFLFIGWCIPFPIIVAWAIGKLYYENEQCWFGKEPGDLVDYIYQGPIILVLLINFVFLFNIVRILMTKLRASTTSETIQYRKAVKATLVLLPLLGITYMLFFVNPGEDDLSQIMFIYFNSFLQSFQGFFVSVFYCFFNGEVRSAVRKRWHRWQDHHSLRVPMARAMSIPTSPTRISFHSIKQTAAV
Test: cell-based or functional assay
Where no end group is shown, it is not given here.
ENDPOINT_NAME: pA50

[[record]]
binder = "TKFTLSLDVPTNIMNLLFNIACAKNLRAQAAANAHLMAQI-NH2 [Cys-variant stresscopin-like peptide SEQ ID NO: 23]"
endpoint_name = "pA50"
result = "8.55 -log10(M)"

[[record]]
binder = "TCFTLSLDVPTNIMNLLFNIAKAKNLRAQAAANAHLMAQI-NH2 [Cys-variant stresscopin-like peptide SEQ ID NO: 3]"
endpoint_name = "pA50"
result = "8.97 -log10(M)"

[[record]]
binder = "TKFTLSLDVPTNIMNLLFNIAKAKNLRAQAAANCHLMAQI (NES-PEG (about 20 kDa) on Cys 34; C-terminal amide (-NH2)) [Pegylated Cys-variant stresscopin-like peptide with NES linker and PEG about 20 kDa SEQ ID NO: 88]"
endpoint_name = "pA50"
result = "8.12 -log10(M)"

[[record]]
binder = "TKFTLSLDVPTNIMNLLFNIAKAKCLRAQAAANAHLMAQI-NH2 [Cys-variant stresscopin-like peptide SEQ ID NO: 26]"
endpoint_name = "pA50"
result = "9.44 -log10(M)"

[[record]]
binder = "TKFTLSLDVPTNIMNLLFNIAKAKNLRAQAAANAHLMAQC (NES-PEG (about 20 kDa) on Cys 40; C-terminal amide (-NH2)) [Pegylated Cys-variant stresscopin-like peptide with NES linker and PEG about 20 kDa SEQ ID NO: 94]"
endpoint_name = "pA50"
result = "~7 -log10(M)"

[[record]]
binder = "TKFTLSLDCPTNIMNLLFNIAKAKNLRAQAAANAHLMAQI (NES-PEG (about 20 kDa) on Cys 9; C-terminal amide (-NH2)) [Pegylated Cys-variant stresscopin-like peptide with NES linker and PEG about 20 kDa SEQ ID NO: 63]"
endpoint_name = "pA50"
result = "~7.45 -log10(M)"

[[record]]
binder = "TKFTLSCDVPTNIMNLLFNIAKAKNLRAQAAANAHLMAQI (NES-PEG (about 20 kDa) on Cys 7; C-terminal amide (-NH2)) [Pegylated Cys-variant stresscopin-like peptide with NES linker and PEG about 20 kDa SEQ ID NO: 61]"
endpoint_name = "pA50"
result = "~6.22 -log10(M)"

